- Tested on: NCI-H23 lung
- experimental_protocol: NCI tumour cell line growth inhibition, 48 h; in the data active means GI50 below about 0.43 µM; inactive means the rest
Respond with a class label; see active, inactive

## Input Record request — test call for Nc1nc(N)c2nc(CNc3ccc(C(=O)NC(CCCNC(=O)c4ccccc4C(=O)O)C(=O)O)cc3)cnc2n1 (centres undefined)
## Output active

* * *

- Tested on: MDA-MB-435
- experimental_protocol: NCI tumour cell line growth inhibition, 48 h
# TGI listing for each entry below

Here's what some known entries look like.
Record `O=C1/C(=C/c2ccco2)N=C(c2ccccc2)N1c1cc2cc(Sc3ccccc3)ccc2[nH]1` . Reported TGI: > 25 µM

Record CC(=O)OC1CC[C@]2(C)C3CC[C@@]4(C)C(CCC4[C@H](C)CCCC(C)C)[C@@H]3CCC2(Br)C1 (stereo not given in full) . Reported TGI: 19.4 µM

Record `COc1ccc(-c2ccc(/C=N/n3c(C)nn(CN4CCN(C)CC4)c3=S)o2)c([N+](=O)[O-])c1` . Reported TGI: 31 µM

Record `NCCN1CC2CCC(CC2)C1` . Reported TGI: > 10 µM

Record Nc1nc(N)c2nc(CNc3ccc(C(=O)NC(CCCNC(=O)c4ccccc4C(=O)O)C(=O)O)cc3)cnc2n1 (stereo not given) . Reported TGI: > 100 µM

Record `COc1ccc(-c2cc(=O)c3c(O)cc(C)cc3o2)cc1OC` . Reported TGI: > 100 µM

Record Cn1c2c(c3ccccc31)CC(=S)N1CCCC(CC2O)C1 (stereo not given) . Reported TGI: > 100 µM

Record `Cc1ccsc1/C=N/Nc1nncc2ccccc12` . Reported TGI: > 100 µM

Record `CCCCn1sc(=O)n(Cc2ccc(CNC(=O)OCc3ccc4c(Br)cc(Br)c(O)c4n3)cc2)c1=O` . Reported TGI: 0.731 µM

Continuing:
Record `O=C(O)CCCOc1cc(-c2ccccc2F)nc2cc3c(cc12)OCO3` . Reported TGI: > 100 µM

* * *

- Test system: SNB-19 CNS
- experimental_protocol: NCI tumour cell line growth inhibition, 48 h; in the data active = GI50 below about 0.43 µM; inactive = the rest
Respond with a class label; see 1 (active), 0 (inactive)

## Input Record request — test call for `C#Cc1cccc(Nc2nc3ccc([N+](=O)[O-])cc3nc2Nc2cccc(C#C)c2)c1`
## Output 1

## Input Record request — test call for `COc1ccc(-c2ccc(/C=N/n3c(C)nn(CN4CCN(C)CC4)c3=S)o2)c([N+](=O)[O-])c1`
## Output 0

## Input Record request — test call for O=C1c2c(O)cc(O)cc2OC(c2ccc(O)cc2O)C1O (configuration not stated)
## Output 0

## Input Record request — test call for `CS(=O)(=O)CCNCc1ccc(-c2ccc3ncnc(Nc4ccc(OCc5ccccc5)c(Cl)c4)c3c2)o1`
## Output 0

## Input Record request — test call for `COc1ccc(C(=O)c2cc3c(N)c(C(=O)Nc4cccc(Cl)c4C)sc3nc2C)cc1`
## Output 1

## Input Record request — test call for `COc1cc2nc3cc([N+](=O)[O-])ccc3c(NCCCNCC(C)(C)O)c2cc1OC`
## Output 1

Continuing:
## Input Record request — test call for `O=[N+]([O-])c1ccc2ncccc2c1Cl`
## Output 0

* * *

- Test system: MALME-3M melanoma
- experimental_protocol: NCI tumour cell line growth inhibition, 48 h
# TGI listing for each entry below
Give the quantity in µM, number only.

Record `C#CCOc1cccc(Nc2ncnc3ccc(NC(=O)CCl)cc23)c1` . Reported TGI: 8.63

Record COC(=O)[C@@]12OC[C@]34C([C@@H](O)C1O)[C@@]1(C)CC(=O)C(OC(=O)/C=C(/c5ccccc5)C(F)(F)F)=C(C)C1C[C@H]3OC(=O)[C@H](O)[C@H]42 (stereo partly drawn) . Reported TGI: 28.9

Record `Cc1c(C)c2c(c(N)c1C#N)C(=O)N(CCN1CCNCC1)C2=O` . Reported TGI: 73.1

Record `CN(CCCl)c1ccc(/C=C/C2=[N+](C)c3ccccc3C2(C)C)cc1` . Reported TGI: 4.3

Would you kindly look at the next entry?
Record `Cc1ccc(/C=C/C(=N/NC(=O)N/N=C(/C=C/c2ccc(C)cc2)C(C)(C)CN2CCCCC2)C(C)(C)CN2CCCCC2)cc1` . Reported TGI: 3.07
